Experiment: pharmacokinetic study in adult wild type FVB mice, oral
Assay type: in vivo
Settings: male, mouse; plasma; 20 mg/kg oral single; adult FVB mice
Experimental endpoint: Tmax (h)
Give bare numbers, in h.

Input: Return Tmax (reported value) for this compound: Cc1cn2nc(-c3nc4ccc(N5CCN(C)CC5)cc4c(=O)[nH]3)cc2c(C)n1
Output: 16

----------
Experiment: pharmacokinetic study in adult wild type FVB mice, oral
Format: in vivo
Conditions: male, mouse; plasma; 2 mg/kg oral single; adult FVB mice
Experimental endpoint: Tmax (h)
Numbers only, in h.

Input: Return Tmax (reported value) for this molecule: Cc1cn2nc(-c3nc4ccc(N5CCN(C)CC5)cc4c(=O)[nH]3)cc2c(C)n1
Output: 3
